These data points were gathered from the supplement of paper PMC9170038.

# Test system: MS2 coat protein
# ASSAY_COMMENT: apparent KD of MS2 coat protein; designed switch direction (-1 OFF switch, 1 ON switch): 1; higher = weaker reporter binding
# ASSAY_CONTEXT: input ligand: microRNA oligo, concentration not stated
QUANTITY_KIND: apparent KD of MS2 coat protein

>>> readout_value("AACAAAUACACAGGAUAUACAGUGGCAACCACUGUAGAAGGGUGGGCGGGUUCCAACAUGAGGAUCACCCAUGUACCCAAUAAC [Atbiladi] (Eterna round: R96, puzzle: Same State NG 1)")
"535 nM"
>>> readout_value("AUUGCUUUCGCAGGAUAUGAUGCGAAAAUUGCGUCAGAAGGGUGGAGUAUCUCAUUGCAACAGGACAUGAGGAUCACCCAUGUC [SameState NG1 #88] (Eterna round: R96, puzzle: Same State NG 1)")
"140 nM"
>>> readout_value("GUACAGAUUAUAGGAUAUCACGUCGAUUAGACGUGAGAAGGAUAAUCACACAUGAAUAUUAAUACAUGAGGAUCACCCAUGUAC [SSNG1/17-A2] (Eterna round: R96, puzzle: Same State NG 1)")
"12.9 nM"

----------
# Test system: MS2 coat protein
# ASSAY_COMMENT: apparent KD of MS2 coat protein; designed switch direction (-1 OFF switch, 1 ON switch): 1; higher = weaker reporter binding
# ASSAY_CONTEXT: input ligand: none
QUANTITY_KIND: apparent KD of MS2 coat protein

>>> readout_value("CAAGAAAACGCAGGAUAUACUCGGGCUACCCGAGUAGAAGGGUGACACAUGAGGAUCACCCAUGUACAUAGCAUUAGCUAUGGA [Onedve] (Eterna round: R96, puzzle: Same State NG 1)")
"770 nM"
>>> readout_value("UAGUACAAGCUUUUUGCUUGUCUUAUUUAACAUGAGGAUCACCCAUGUAAGUUGAAAGUUAGAGAGUGCACCUUCAA [JR_SHM208A_Sub052] (Eterna round: R96, puzzle: Sensor for hsa-mir-208a)")
"21.6 nM"
>>> readout_value("UUGAAGAAUUAAGGAUAUUGAGUACAUAUGUUUAACAUGAGGAUCACCCAUGUGGGUUGCGGUAUCGAGAAGGUAAAUUACAAG [JL SSNG2 1.44] (Eterna round: R96, puzzle: Same State NG 2)")
"138 nM"
>>> readout_value("AUAUGAGAAGCAGGAUAUGUGGAGAAGAAACAAACAGAAGGGUUUAUGGGACAACAUGAGGAUCACCCAUGUUCUCUGUGAUGA [AK SSNG1-V2-2] (Eterna round: R96, puzzle: Same State NG 1)")
"59.2 nM"
>>> readout_value("GCGAGCGUACUUGCUACAUGAGGAUCACCCAUGUUUACUGGACAGGAUAUGGUACCGUUUCGGUACCAGAAGGGUUCAUCAUGU [JL SSNG3 3.69] (Eterna round: R96, puzzle: Same State NG 3)")
"597 nM"

----------
# Tested on: MS2 coat protein
# ASSAY_COMMENT: apparent KD of MS2 coat protein; designed switch direction (-1 OFF switch, 1 ON switch): 1; higher = weaker reporter binding
# ASSAY_CONTEXT: Eterna round: R95; input ligand: FMN 200 uM
QUANTITY_KIND: apparent KD of MS2 coat protein

>>> readout_value("GGUCCAGCCUGAGCUGGACAAAAGCAUGUACAUGAGGAUCACCCAUGUCGUGUACAAGCUUUUUGCUCGUCUUAAAA [JL mod - D87 - 5] (puzzle: Sensor for hsa-mir-208a)")
"215 nM"
>>> readout_value("AGUCCAGCCAAAGCUGGACAAAAGCAUGUACAUGAGGAUCACCCAUGUCAUGUACAAGCUUUUUGCUCGUCUUAAUA [Mat - hsa-mir-208a - Mod of JL - D38] (puzzle: Sensor for hsa-mir-208a)")
"464 nM"
>>> readout_value("AAGUAGGAGUUACAGGAUAUAUGGAGGAGGACAUGAGGAUCACCCAUGUGAGAGAUGAGAGGAGGAUAGAAGGGUAAGGGAGUAA [JR_SS2_Sub027] (puzzle: Same State 2)")
"24.1 nM"

----------
# Tested on: MS2 coat protein
# ASSAY_COMMENT: apparent KD of MS2 coat protein; designed switch direction (-1 OFF switch, 1 ON switch): -1; higher = weaker reporter binding
# ASSAY_CONTEXT: input ligand: microRNA oligo, concentration not stated
QUANTITY_KIND: apparent KD of MS2 coat protein (nM)

>>> readout_value("GUGGUGGGUUUUCCGAGUGACAUGAGGAUCACCCAUGUGUUAGUUUGAGGUAUCAAGCGAAUGGCUCGUCUUAUGUG [JR_SV3TOV1_Sub046] (Eterna round: R96, puzzle: Sensor v3, turn-off variant 1)")
44.7
>>> readout_value("AGCUGUGGCCGAGGAUAUACAUGAGGAUCACCCAUGUUACAUAAUUCGACAUGAGAAUACGAACCGUAGAAGGCGGUCUCAGCA [Eli eng2 - 002] (Eterna round: R96, puzzle: Exclusion NG 2)")
37.8
>>> readout_value("CGCCCUGACGAAGGAUAUUAAGCUCAUACAUGAGGAUCACCCAUGUCCAUAGUAGUGUAUGCACCUGAGAAGGUCGUCAGCGCU [Eternabot solution 50] (Eterna round: R96, puzzle: Exclusion NG 2)")
240
>>> readout_value("AUGGGUCCUCUCGGAGCUACAUGAGGAUCACCCAUGUGUAUUGAGGAUAUCCACUGCUCAGGACGGGAGAAGGCAGUGUACUGU [Ex NG3 #87] (Eterna round: R96, puzzle: Exclusion NG 3)")
46.3
>>> readout_value("ACAUGAGGAUCACCCAUGUCCGGCUGGUCUGUCUCGGCUGUCGAGGAUAUAGCUCGGUAUCCGCGCUAGAAGGCGGGAGCCGGU [Aenatbe mod 91] (Eterna round: R96, puzzle: Exclusion NG 3)")
29.4
>>> readout_value("UAUAUAUAGUAAGGAUAUGUAAUUAUUUUAGAAACAGAAGGUACUGACAUGAGGAUCACCCAUGUUUUAGUGUGGGCAUGUAGA [JMF's solution 45] (Eterna round: R96, puzzle: Exclusion NG 1)")
69.9
>>> readout_value("GCACGGGUGGUAGGAUAUCCUUGCGAUUAGCAAGGAGAAGGACCACAUGAGGAUCACCCAUGUACCUCAAUUAUCCUUCCGUGC [Eli exng1 - 024] (Eterna round: R96, puzzle: Exclusion NG 1)")
10.4
>>> readout_value("AAGAACGUCGGAGGAUAUCCAGCCAAGCCCGCAGGAGAAGGCCGGCGGUGGGAUGUGCUUCACAUGAGGAUCACCCAUGUUAAU [Onriti] (Eterna round: R96, puzzle: Exclusion NG 1)")
64.6
>>> readout_value("GUCGUGCGGCUUUGCUGUACGAGUACAUGAGGAUCACCCAUGUAGGAUAUGGUUCGUUUUGCGUGCUAGAAGGGCGUGCGUUGU [Excl-NG3-LRO15] (Eterna round: R96, puzzle: Exclusion NG 3)")
17.9
>>> readout_value("AUUGUAUGGAAAGGAUAUAGAAUAUUAUUUUAACAUGAGGAUCACCCAUGUAACCUUAUGUGUAGCUAGAAGGUUCGUUUGUUA [Title] (Eterna round: R96, puzzle: Exclusion NG 2)")
69.2
>>> readout_value("GUUAUUUAUGUAGGAUAUGCAAGGCGAACCUAAGCAGAAGGACAUGAGGAUCACCCAUGUAUUGCGGUCUGCGUUCAGAUCGCU [salish99_ExNG1_r4_013] (Eterna round: R96, puzzle: Exclusion NG 1)")
15
>>> readout_value("ACAUGAGGAUCACCCAUGUCAGGCGGGUCCUCUCCGGCUGUUGAGGAUAUAGUUCGGUAUCCGCGCUAGAAGGUGAGGGCCGGC [Aenatbe mod 21] (Eterna round: R96, puzzle: Exclusion NG 3)")
9.99
>>> readout_value("CAGUACUGAGGAUAUACAUGAGGAUCACCCAUGUGUUCCAGCUAGGAAACUAGCACUUGUAGAAGGCAGUACUG [Ex3: 830] (Eterna round: R96, puzzle: Exclusion 3)")
21.6
>>> readout_value("UUAAAUCAUGUAGGAUAUGCGUGGCGAAGCUAUGCAGAAGGACAUGAGGAUCACCCAUGUUCUGCGGUCUGCGUACAGAUCGCU [JL ENG1 1.04] (Eterna round: R96, puzzle: Exclusion NG 1)")
14.9
>>> readout_value("CCUCAGUAAGGAUAUCAGCUUAAGGAGGUGGUAAAGAGAGCUGAGAAGGUACAUGAGGAUCACCCAUGUUAAAA [Zatite] (Eterna round: R96, puzzle: Exclusion 4)")
47.1
>>> readout_value("UUGUUAUAUGUAGGAUAUGCGUAUUAUUAUUAUGCAGAAGGACAUGAGGAUCACCCAUGUAUGUUGUUGUUAUAUAUUAUAUAU [Title] (Eterna round: R96, puzzle: Exclusion NG 1)")
18.1
>>> readout_value("UCUGUUAUGCGAGGAUAUCGACCAUUCCUCUUAACAUGAGGAUCACCCAUGUGCUAAACCUACAACGAGAAGGCGCUCAUACUC [JR_ExcNG2_Sub068] (Eterna round: R96, puzzle: Exclusion NG 2)")
102
>>> readout_value("CACCGUUAGUGAGGAUAUAGUACAUGAGGAUCACCCAUGUAAUAAAUGAGAAUUUCGGAUGUAUGCUAGAAGGCACAAAUCGGC [Ostricism 51 - Jieux - Exclusion NG 2] (Eterna round: R96, puzzle: Exclusion NG 2)")
47.2
